Catalogue of pIC50 values
- ASSAYED TARGET: recombinant PI3K (p110δ/p85α) (Homo sapiens, UniProt O00329)
- Sequence (O00329 whole entry): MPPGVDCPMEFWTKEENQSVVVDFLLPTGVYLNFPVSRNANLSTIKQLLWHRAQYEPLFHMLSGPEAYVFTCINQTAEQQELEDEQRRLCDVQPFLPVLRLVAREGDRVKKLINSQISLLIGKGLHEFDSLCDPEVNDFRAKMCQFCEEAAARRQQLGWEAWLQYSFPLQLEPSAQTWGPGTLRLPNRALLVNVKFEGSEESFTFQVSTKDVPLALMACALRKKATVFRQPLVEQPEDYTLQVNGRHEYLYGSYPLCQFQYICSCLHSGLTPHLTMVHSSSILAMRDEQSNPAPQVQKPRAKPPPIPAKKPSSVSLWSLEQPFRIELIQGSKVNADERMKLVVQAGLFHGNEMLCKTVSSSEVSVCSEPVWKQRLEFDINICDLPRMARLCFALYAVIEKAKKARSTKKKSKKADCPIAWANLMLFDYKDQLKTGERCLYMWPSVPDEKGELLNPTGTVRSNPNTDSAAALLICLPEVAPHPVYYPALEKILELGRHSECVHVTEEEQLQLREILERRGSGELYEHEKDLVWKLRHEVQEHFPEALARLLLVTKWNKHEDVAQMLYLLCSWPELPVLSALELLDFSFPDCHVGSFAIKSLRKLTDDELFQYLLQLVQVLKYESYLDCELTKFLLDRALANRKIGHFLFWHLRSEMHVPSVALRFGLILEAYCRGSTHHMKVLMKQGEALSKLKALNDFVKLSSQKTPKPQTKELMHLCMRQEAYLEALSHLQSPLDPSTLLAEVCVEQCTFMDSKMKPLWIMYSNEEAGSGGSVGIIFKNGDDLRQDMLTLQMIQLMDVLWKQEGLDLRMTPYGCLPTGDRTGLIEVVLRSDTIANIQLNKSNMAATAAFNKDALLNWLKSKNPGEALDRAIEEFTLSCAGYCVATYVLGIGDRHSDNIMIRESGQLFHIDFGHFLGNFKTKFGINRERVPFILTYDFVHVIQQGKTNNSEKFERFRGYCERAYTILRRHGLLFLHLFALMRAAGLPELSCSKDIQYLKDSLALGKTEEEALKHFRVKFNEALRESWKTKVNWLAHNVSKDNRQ
- Sequence (P27986 whole entry partner): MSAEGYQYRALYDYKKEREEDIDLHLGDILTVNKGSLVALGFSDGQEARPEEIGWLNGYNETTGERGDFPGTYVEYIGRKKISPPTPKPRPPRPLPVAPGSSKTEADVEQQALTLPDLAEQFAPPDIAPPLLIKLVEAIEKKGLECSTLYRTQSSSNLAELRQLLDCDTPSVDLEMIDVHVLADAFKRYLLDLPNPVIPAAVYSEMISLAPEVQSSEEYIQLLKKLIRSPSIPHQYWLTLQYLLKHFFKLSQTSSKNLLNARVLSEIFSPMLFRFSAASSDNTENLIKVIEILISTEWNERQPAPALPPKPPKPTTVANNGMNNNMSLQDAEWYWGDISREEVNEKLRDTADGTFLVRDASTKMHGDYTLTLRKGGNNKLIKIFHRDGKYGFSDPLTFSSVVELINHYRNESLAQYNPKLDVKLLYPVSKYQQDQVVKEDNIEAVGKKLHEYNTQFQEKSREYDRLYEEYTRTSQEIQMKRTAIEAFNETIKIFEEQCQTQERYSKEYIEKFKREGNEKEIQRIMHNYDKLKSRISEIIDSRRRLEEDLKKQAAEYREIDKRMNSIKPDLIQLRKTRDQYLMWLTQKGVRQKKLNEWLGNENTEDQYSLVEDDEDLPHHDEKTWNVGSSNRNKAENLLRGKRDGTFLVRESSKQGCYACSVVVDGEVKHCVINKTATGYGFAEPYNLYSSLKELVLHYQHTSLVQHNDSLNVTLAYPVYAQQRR
- PROTOCOL TEXT: PI3Kδ ADP-Glo kinase assay
- Type: biochemical
- PARTICULARS: read-out: PI3Kδ Enzyme activity IC50
The scale used: pIC50 is minus the common logarithm of the concentration in molar units.

Worked examples follow.
{"MOLECULE": "CC(C)Oc1c(C(C)c2nc(Cl)c3c(N)nccn23)cc(Cl)c(F)c1-c1ccc(C(N)=O)nc1 (stereo not shown)", "ASSAYED TARGET": "recombinant PI3K (p110δ/p85α) (Homo sapiens, UniProt O00329)", "MEAS VALUE": 8.82}
{"MOLECULE": "Cc1nc([C@@H](C)c2cc(Cl)c(F)c(-c3ccc(C(=O)N4CC(C(=O)O)C4)nc3)c2OC(C)C)n2ccnc(N)c12", "ASSAYED TARGET": "recombinant PI3K (p110δ/p85α) (Homo sapiens, UniProt O00329)", "MEAS VALUE": 9.15}
{"MOLECULE": "CC(C)Oc1c([C@H](C)c2nc(Cl)c3c(N)nccn23)cc(Cl)c(F)c1-c1ccc(C(=O)O)nc1 [Compound 18A]", "ASSAYED TARGET": "recombinant PI3K (p110δ/p85α) (Homo sapiens, UniProt O00329)", "MEAS VALUE": 9.25}
{"MOLECULE": "Cc1nc([C@@H](C)c2cc(Cl)c(F)c(-c3ccc(C(=O)NCCO)nc3)c2OC(C)C)n2ccnc(N)c12", "ASSAYED TARGET": "recombinant PI3K (p110δ/p85α) (Homo sapiens, UniProt O00329)", "MEAS VALUE": 9.09}
{"MOLECULE": "Cc1c(Cl)cc([C@@H](C)c2nc(Br)c3c(N)nccn23)c(OC(C)C)c1-c1ccc(C(F)(F)F)nc1 [Compound 38B]", "ASSAYED TARGET": "recombinant PI3K (p110δ/p85α) (Homo sapiens, UniProt O00329)", "MEAS VALUE": 5.68}
{"MOLECULE": "CCOc1c(C(C)c2nc(Cl)c3c(N)nccn23)cc(F)c(Cl)c1-c1ccc(C(F)(F)F)nc1 (stereo not shown)", "ASSAYED TARGET": "recombinant PI3K (p110δ/p85α) (Homo sapiens, UniProt O00329)", "MEAS VALUE": 8.24}

API: the following record is the query input.
Please state recorded pIC50 (tested on recombinant PI3K (p110δ/p85α) (Homo sapiens, UniProt O00329)) of `Cc1nc([C@@H](C)c2cc(Cl)c(F)c(-c3ccc(C(=O)N4CC(O)C4)nc3)c2OC(C)C)n2ccnc(N)c12`
9.25

These entries and their values trace back to patent US11725012B2.
